Target: recombinant full-length WRN protein (1-1432) (Homo sapiens, UniProt Q14191)
Construct: recombinant full-length WRN protein (1-1432)
Sequence (Q14191 whole entry): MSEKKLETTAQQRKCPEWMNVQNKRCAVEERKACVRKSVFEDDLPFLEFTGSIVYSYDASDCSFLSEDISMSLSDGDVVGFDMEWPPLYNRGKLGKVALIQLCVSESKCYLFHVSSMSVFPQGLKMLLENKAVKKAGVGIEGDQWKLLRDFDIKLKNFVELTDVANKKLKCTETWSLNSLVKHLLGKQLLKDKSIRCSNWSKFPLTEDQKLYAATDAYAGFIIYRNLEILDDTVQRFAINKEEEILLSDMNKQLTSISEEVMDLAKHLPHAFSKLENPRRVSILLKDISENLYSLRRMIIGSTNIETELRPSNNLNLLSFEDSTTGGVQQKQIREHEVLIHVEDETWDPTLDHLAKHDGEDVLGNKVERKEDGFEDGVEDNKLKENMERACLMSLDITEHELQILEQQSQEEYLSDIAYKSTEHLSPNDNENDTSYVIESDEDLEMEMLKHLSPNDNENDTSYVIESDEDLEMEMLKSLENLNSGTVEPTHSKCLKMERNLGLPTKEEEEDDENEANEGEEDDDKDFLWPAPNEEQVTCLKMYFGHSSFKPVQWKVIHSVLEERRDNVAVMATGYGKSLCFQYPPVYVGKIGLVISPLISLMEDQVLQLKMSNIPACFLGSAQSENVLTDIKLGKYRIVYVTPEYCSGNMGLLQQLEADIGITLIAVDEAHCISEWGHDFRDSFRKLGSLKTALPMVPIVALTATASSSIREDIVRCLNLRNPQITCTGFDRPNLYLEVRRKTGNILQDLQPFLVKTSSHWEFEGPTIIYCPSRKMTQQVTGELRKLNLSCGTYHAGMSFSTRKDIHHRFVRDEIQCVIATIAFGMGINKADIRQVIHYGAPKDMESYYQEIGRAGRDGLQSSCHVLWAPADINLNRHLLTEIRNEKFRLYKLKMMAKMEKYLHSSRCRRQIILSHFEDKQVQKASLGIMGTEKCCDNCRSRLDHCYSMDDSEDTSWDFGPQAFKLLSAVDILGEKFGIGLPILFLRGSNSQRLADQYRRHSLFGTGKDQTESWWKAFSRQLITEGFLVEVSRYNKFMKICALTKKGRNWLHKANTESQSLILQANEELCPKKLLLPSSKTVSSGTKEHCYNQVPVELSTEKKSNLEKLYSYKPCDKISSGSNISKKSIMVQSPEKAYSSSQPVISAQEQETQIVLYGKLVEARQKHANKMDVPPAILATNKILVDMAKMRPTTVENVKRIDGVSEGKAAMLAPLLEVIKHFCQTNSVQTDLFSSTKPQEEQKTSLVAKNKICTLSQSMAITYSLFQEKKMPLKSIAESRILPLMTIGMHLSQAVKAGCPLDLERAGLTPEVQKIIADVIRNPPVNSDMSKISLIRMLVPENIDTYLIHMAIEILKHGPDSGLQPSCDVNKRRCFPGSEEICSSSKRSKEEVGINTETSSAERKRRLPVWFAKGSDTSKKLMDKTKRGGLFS
Test: WRN unwinding activity, fluorogenic 384-well assay (Example A)
Assay type: biochemical
Conditions: WRN unwinding activity, 4 hr; Table 2; read-out: 4 hr UNW pIC50 (converted)
Binary call on IC50 with cut-off 4 nM: strictly below means Yes, and equality or higher means No.

// below: answered compounds
compound	group
Cc1nc2cc(S(=O)(=O)N(C)c3ccc([C@H]4C[C@@H](N5CCOCC5)C[C@@H](C(=O)Nc5ccc(C(F)(F)F)cc5F)[C@@H]4C(=O)O)cc3)ccc2n1C (single isomer, unassigned) [Example 340]	No
CN(c1ccc([C@H]2CCC[C@@H](C(=O)Nc3ccc(C(F)(F)F)cc3F)[C@@H]2C(=O)O)cc1)S(=O)(=O)c1ccc2c(c1)nc(Cl)n2C	Yes
CN[C@H]1C[C@H](C(=O)Nc2ccc(C(F)(F)F)cc2F)[C@@H](C(=O)O)[C@H](c2ccc(N(C)S(=O)(=O)c3ccc4c(c3)nc(C)n4C)cc2)C1 (single isomer, unassigned)	No

stdin: Below 4 nM on IC50? Entry "CCO[C@@H]1C[C@H](c2ccc(N(C)S(=O)(=O)c3ccc4c(c3)nc3n4CCCC3)cc2)[C@@H](C(=O)O)[C@H](C(=O)Nc2ccc(C(F)(F)F)cc2F)C1"
stdout: Yes

----------
Test system: SW48 human colorectal cancer cells (MSI-H cancer cells)
Assay: SW48 cell viability, CellTiter-Glo, 120 hours (Example B)
Conditions: Homo sapiens, SW48, 120 h, read-out: SW48 pCC50, SW48 cell viability, 120 hours incubation (converted); Table 2
Category | rule: reported CC50 within range, see I = under 500 nM, II = from 500 nM up to 8000 nM, III = 8000 nM and over

Field: example entries. Status: answers known.
compound	tested-system	group
Cc1nc2cc(S(=O)(=O)N(C)c3ccc([C@H]4C[C@@H](N5CCC[C@H](F)C5)C[C@@H](C(=O)Nc5ccc(C(F)(F)F)cc5F)[C@@H]4C(=O)O)cc3)ccc2n1C (stereo in doubt) [Example 350]	SW48 human colorectal cancer cells (MSI-H cancer cells)	I
O=C(O)[C@@H]1[C@@H](c2ccc(-c3cnoc3)cc2)CCC[C@H]1C(=O)Nc1ccc(C(F)(F)F)cc1F [Example 48]	SW48 human colorectal cancer cells (MSI-H cancer cells)	II
CN(C)c1nc2cc(S(=O)(=O)N(C)c3ccc([C@H]4CCC[C@@H](C(=O)Nc5ccc(C(F)(F)F)cc5F)[C@@H]4C(=O)O)cc3)ccc2n1C [Example 121]	SW48 human colorectal cancer cells (MSI-H cancer cells)	I

stdin: Which class is correct for the following compound? Cc1nc2cc(S(=O)(=O)N(C)c3ccc([C@H]4CC(F)(F)C[C@@H](C(=O)Nc5ccc(C(F)(F)F)cc5F)[C@@H]4C(=O)O)cc3)ccc2n1C (relative stereo) [Example 363]
stdout: I

stdin: Can you handle Cc1nc2cc(S(=O)(=O)N(C)c3ccc([C@@H]4C[C@H](OCC5(C)COC5)C[C@H](C(=O)Nc5ccc(C(F)(F)F)cc5F)[C@H]4C(=O)O)cc3)ccc2n1C (stereo in doubt) [Example 366] next?
stdout: III

stdin: Repeat for the following compound: Cc1nc2cc(S(=O)(=O)N(C)c3ccc([C@@H]4CCC[C@H](C(=O)Nc5ccc(C(F)(F)F)cc5F)[C@H]4C(=O)O)nc3)ccc2n1C (single isomer, unassigned) [Example 160]
stdout: III

stdin: What do you have for Cc1nc2cc(S(=O)(=O)N(C)c3ccc([C@H]4C[C@@H](OC(C)C)C[C@@H](C(=O)Nc5ccc(C(F)(F)F)cc5F)[C@@H]4C(=O)O)cc3)ccc2n1C (stereo in doubt) [Example 311] ?
stdout: I

stdin: # iterate: CCO[C@@H]1CC[C@@H](C(=O)Nc2ccc(C(F)(F)F)cc2F)[C@H](C(=O)O)[C@H]1c1ccc(N(C)S(=O)(=O)c2ccc3c(c2)nc(C)n3C)cc1 (racemic) [Example 371]
stdout: II

stdin: Another: Cc1nc2cc(S(=O)(=O)N(C)c3ccc([C@@H]4C[C@H](OC(C)C)C[C@H](C(=O)Nc5ccc(C(F)(F)F)cc5F)[C@H]4C(=O)O)cc3)ccc2n1C (stereo in doubt) [Example 312]
stdout: III

stdin: Also, CN(c1ccc([C@H]2CCC[C@@H](C(=O)Nc3ccc(C(F)(F)F)cc3F)[C@@H]2C(=O)O)cc1)S(=O)(=O)c1ccc(Br)c(O)c1 [Example 274] please.
stdout: III

stdin: One more compound: Cc1nc2cc(S(=O)(=O)N(C)c3ccc([C@@H]4C[C@@H](N5CC[C@H](F)C5)C[C@H](C(=O)Nc5ccc(C(F)(F)F)cc5F)[C@H]4C(=O)O)cc3)ccc2n1C (stereo in doubt) [Example 379]
stdout: III

stdin: Also check CN(c1ccc([C@H]2CCC[C@@H](C(=O)Nc3ccc(C(F)(F)F)cc3F)[C@@H]2C(=O)O)cc1)S(=O)(=O)c1cc(I)c2occc2c1 [Example 117]
stdout: II

----------
Tested on: SW48 human colorectal cancer cells (MSI-H cancer cells)
Test: SW48 cell viability, CellTiter-Glo, 120 hours (Example B)
Conditions: Homo sapiens, SW48, 120 h, read-out: SW48 pCC50, SW48 cell viability, 120 hours incubation (converted); Table 2
Where a name gives a salt, the structure may show the parent alone.
reported-endpoint: CC50 (µM)
Answer with a number only, understood to be in µM.

molecule	tested-system	reported-endpoint	data-value
CO[C@@H]1C[C@H](C(=O)Nc2ccc(C(F)(F)F)cc2F)[C@@H](C(=O)O)[C@H](c2ccc(N(C)S(=O)(=O)c3ccc4c(c3)nc(C)n4C)cc2)C1 (relative stereo) [Example 148]	SW48 human colorectal cancer cells (MSI-H cancer cells)	CC50	0.2
Cc1nnc(-c2cc([C@@H]3CCC[C@H](C(=O)Nc4ccc(C(F)(F)F)cc4F)[C@H]3C(=O)O)ccc2C(F)(F)F)o1 (single isomer, unassigned) [Example 245]	SW48 human colorectal cancer cells (MSI-H cancer cells)	CC50	7.94
Cc1cc(C)c(S(=O)(=O)N(C)c2ccc([C@H]3CCC[C@@H](C(=O)Nc4ccc(C(F)(F)F)cc4F)[C@@H]3C(=O)O)cc2)c(C)c1 [Example 103]	SW48 human colorectal cancer cells (MSI-H cancer cells)	CC50	12.6
Cc1nc2cc(S(=O)(=O)N(C)c3ccc([C@H]4CCC[C@@H](C(=O)Nc5ccc(C(C)C)cc5)[C@@H]4C(=O)O)cc3)ccc2n1C (single isomer, unassigned) [Example 80]	SW48 human colorectal cancer cells (MSI-H cancer cells)	CC50	0.501
Cc1nc2cc(S(=O)(=O)N(C)c3ccc([C@H]4C[C@@H](C#N)C[C@@H](C(=O)Nc5ccc(C(F)(F)F)cc5F)[C@@H]4C(=O)O)cc3)ccc2n1C (single isomer, unassigned) [Example 287]	SW48 human colorectal cancer cells (MSI-H cancer cells)	CC50	0.398
O=C(O)[C@@H]1[C@@H](c2ccc(-c3nsc4ccccc34)cc2)CCC[C@H]1C(=O)Nc1ccc(C(F)(F)F)cc1F [Example 36]	SW48 human colorectal cancer cells (MSI-H cancer cells)	CC50	5.01
Cc1nc2cc(S(=O)(=O)N(C)c3ccc([C@H]4CCC[C@@H](COc5ccc(C(F)(F)F)cc5)[C@@H]4C(=O)O)cc3)ccc2n1CCN [Example 216, formic acid salt]	SW48 human colorectal cancer cells (MSI-H cancer cells)	CC50	12.6
Cc1nc2cc(S(=O)(=O)N(C)c3ccc([C@H]4CCC[C@@H](C(=O)Nc5ccc(C(F)(F)F)cc5F)[C@@H]4C(=O)O)nc3)ccc2n1C (relative stereo) [Example 161]	SW48 human colorectal cancer cells (MSI-H cancer cells)	CC50	0.794

stdin: Entry O=C(O)[C@@H]1[C@@H](c2ccc(-c3cccnc3)cc2)CCC[C@H]1C(=O)Nc1ccc(C(F)(F)F)cc1F [Example 8] : reported CC50 = ?
stdout: 7.94

stdin: Likewise for Cc1nc2cc(S(=O)(=O)N(C)c3ccc([C@H]4C[C@@H](OC[C@@H]5COCCO5)C[C@@H](C(=O)Nc5ccc(C(F)(F)F)cc5F)[C@@H]4C(=O)O)cc3)ccc2n1C (stereo in doubt) [Example 329] ?
stdout: 0.0631

stdin: Same question for CN(c1ccc([C@H]2CCC[C@@H](C(=O)Nc3ccc(C(F)(F)F)cc3F)[C@@H]2C(=O)O)cc1)S(=O)(=O)c1ccc2c(c1)CN(C(=O)C(F)(F)F)CC2 [Example 108] please.
stdout: 2

----------
System: SW48 human colorectal cancer cells
Assay: Calculated free drug potency in SW48 cell assay, corrected with media free fraction (Example C)
Type: cell-based
Settings: Homo sapiens, SW48, SW48 pCC50 corrected with measured free fraction in cell assay media
Heads up, the class ranges for CC50 are bottom bin (below 0.01 µM), middle bin (0.01 µM to below 0.03 µM), top bin (0.03 µM or more)

compound	group
Cc1nc2cc(S(=O)(=O)N(C)c3ccc([C@H]4C[C@@H](OCC(F)F)C[C@@H](C(=O)Nc5ccc(C(F)(F)F)cc5F)[C@@H]4C(=O)O)cc3)ccc2n1C (relative stereo) [Example 159]	middle bin
CN(c1ccc([C@H]2CCC[C@@H](C(=O)Nc3ccc(C(F)(F)F)cc3F)[C@@H]2C(=O)O)cc1)S(=O)(=O)c1cccc(C2CC2(F)F)c1 (stereo partly drawn) [Example 120]	top bin
Cc1nc2cc(S(=O)(=O)N(C)c3ccc([C@H]4CCC[C@@H](C(=O)Nc5ccc(C(F)(F)F)cc5F)[C@@H]4C(=O)O)cc3)ccc2n1C (single isomer, unassigned) [Example 83]	middle bin
CCCO[C@@H]1C[C@H](c2ccc(N(C)S(=O)(=O)c3ccc4c(c3)nc(C)n4C)cc2)[C@@H](C(=O)O)[C@H](C(=O)Nc2ccc(C(F)(F)F)cc2F)C1 (stereo in doubt) [Example 151]	middle bin
CN(c1ccc([C@H]2CCC[C@@H](C(=O)Nc3ccc(C(F)(F)F)cc3F)[C@@H]2C(=O)O)cc1)S(=O)(=O)c1cccc([C@@H]2CCCNC2)c1 [Example 262]	top bin
Cc1nc2cc(S(=O)(=O)N(C)c3ccc([C@H]4C[C@@H](N5CCCC(F)(F)C5)C[C@@H](C(=O)Nc5ccc(C(F)(F)F)cc5F)[C@@H]4C(=O)O)cc3)ccc2n1C (relative stereo) [Example 353]	bottom bin
Cc1nc2cc(S(=O)(=O)N(C)c3ccc([C@H]4C[C@H]5COC[C@H]5[C@@H](C(=O)Nc5ccc(C(F)(F)F)cc5F)[C@@H]4C(=O)O)cc3)ccc2n1C (stereo in doubt) [Example 392]	middle bin
Cc1nc2cc(S(=O)(=O)N(C)c3ccc([C@H]4CCC[C@@H](COc5ccc(C(F)(F)F)cc5)[C@@H]4C(=O)O)cc3)ccc2n1CCN(C)C [Example 219]	middle bin

stdin: Band assignment needed for Cc1nc2cc(S(=O)(=O)N(C)c3ccc([C@H]4CCC[C@@H](C(=O)Nc5ccc(C(F)(F)F)cc5F)[C@@H]4C(=O)O)cc3)cc([C@H]3CCCN(C)C3)c2n1C (relative stereo) [Example 271] please.
stdout: middle bin

stdin: Could you do the same for Cc1nc2cc(S(=O)(=O)N(C)c3ccc([C@@H]4C[C@@H](N5CCC[C@@H](F)C5)C[C@H](C(=O)Nc5ccc(C(F)(F)F)cc5F)[C@H]4C(=O)O)cc3)ccc2n1C (stereo in doubt) [Example 346] , please?
stdout: top bin

stdin: Now the compound Cc1nc2cc(S(=O)(=O)N(C)c3ccc([C@H]4CC[C@@H](C)[C@@H](C(=O)Nc5ccc(C(F)(F)F)cc5F)[C@@H]4C(=O)O)cc3)ccc2n1C (relative stereo) [Example 235]
stdout: bottom bin

stdin: Now consider CN1CCN(c2cc(S(=O)(=O)N(C)c3ccc([C@H]4CCC[C@@H](C(=O)Nc5ccc(C(F)(F)F)cc5F)[C@@H]4C(=O)O)cc3)cc3ccoc23)CC1 [Example 265] .
stdout: top bin
